Origin of values: ChEMBL document CHEMBL1152007

Biological target: Cholecystokinin receptor type A (Rattus norvegicus)
Experiment: The concentration (nM) producing half-maximal inhibition of specific binding of [1251] Bolton Hunter CCK-8 to CCK receptors in the rat pancreas (CCK-A);value ranges from 1100 to 1500
PROPERTY LABEL: IC50
Respond with the figure and its unit, in that order.

Task: For the molecule CC(Cc1c[nH]c2ccccc12)(NC(=O)OC1C2CC3CC(C2)CC1C3)C(=O)NC[C@H](NC(=O)CCC(=O)Nc1nn[nH]n1)c1ccccc1 (single isomer, unassigned) , what IC50 is on record?
Output: 1200 nM

* * *

Target: Gastrin/cholecystokinin type B receptor (Mus musculus)
Sequence (P56481 whole entry): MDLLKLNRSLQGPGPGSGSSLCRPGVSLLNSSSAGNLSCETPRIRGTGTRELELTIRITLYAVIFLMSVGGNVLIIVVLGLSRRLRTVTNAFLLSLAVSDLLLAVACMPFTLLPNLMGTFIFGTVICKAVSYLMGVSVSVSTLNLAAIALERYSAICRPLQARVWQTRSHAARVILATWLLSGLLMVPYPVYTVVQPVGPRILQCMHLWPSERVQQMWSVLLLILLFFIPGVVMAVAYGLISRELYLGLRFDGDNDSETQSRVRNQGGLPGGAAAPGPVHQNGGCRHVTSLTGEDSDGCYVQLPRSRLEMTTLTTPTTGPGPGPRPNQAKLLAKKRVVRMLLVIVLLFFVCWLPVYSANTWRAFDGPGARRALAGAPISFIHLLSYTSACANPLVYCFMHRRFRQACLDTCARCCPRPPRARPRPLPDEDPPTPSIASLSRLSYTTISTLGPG
Experiment: The concentration (nM) producing half-maximal inhibition of specific binding of [1251] Bolton Hunter CCK-8 to CCK receptors in the mouse cerebral cortex (CCK-B);value ranges from 8.6 to 32
Format: tissue-based
PROPERTY LABEL: pIC50
Lab note — pIC50 values are minus log10 of concentrations in M.

Task: For the compound CC(Cc1c[nH]c2ccccc12)(NC(=O)OC1C2CC3CC(C2)CC1C3)C(=O)NC[C@H](NC(=O)CCC(=O)NO)c1ccccc1 (single isomer, unassigned) , what pIC50 is on record?
Output: 7.85

* * *

Biological target: Cholecystokinin receptor type A (Rattus norvegicus, UniProt P30551)
Sequence (P30551 whole entry): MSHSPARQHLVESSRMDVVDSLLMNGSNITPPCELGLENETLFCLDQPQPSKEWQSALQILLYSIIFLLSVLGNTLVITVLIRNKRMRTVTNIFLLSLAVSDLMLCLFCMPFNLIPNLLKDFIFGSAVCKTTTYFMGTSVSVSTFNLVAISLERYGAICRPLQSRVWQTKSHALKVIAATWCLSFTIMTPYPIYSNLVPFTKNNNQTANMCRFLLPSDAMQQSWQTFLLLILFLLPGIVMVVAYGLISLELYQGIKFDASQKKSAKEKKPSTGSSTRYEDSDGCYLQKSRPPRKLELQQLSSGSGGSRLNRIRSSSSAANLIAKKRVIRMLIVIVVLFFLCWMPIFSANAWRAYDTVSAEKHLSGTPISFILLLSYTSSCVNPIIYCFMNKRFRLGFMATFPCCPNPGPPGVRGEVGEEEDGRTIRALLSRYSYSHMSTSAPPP
Assay: The concentration (nM) producing half-maximal inhibition of specific binding of [1251] Bolton Hunter CCK-8 to CCK receptors in the rat pancreas (CCK-A);value ranges from 620 to 770
PROPERTY LABEL: IC50 (nM)
Give your result in nM as a bare value.

Task: Checklist item: IC50 tested on Cholecystokinin receptor type A (Rattus norvegicus, UniProt P30551), entry CC(Cc1c[nH]c2ccccc12)(NC(=O)OC1C2CC3CC(C2)CC1C3)C(=O)NC[C@H](NC(=O)CCNS(=O)(=O)C(F)(F)F)c1ccccc1 (single isomer, unassigned) , value?
Output: 680

* * *

Assay: Dissociation constant, pKa was determined; experiment 2
Format: physicochemical
PROPERTY LABEL: pKa
Respond with the number and no other words.

Task: For the molecule CC(Cc1c[nH]c2ccccc12)(NC(=O)OC1C2CC3CC(C2)CC1C3)C(=O)NC[C@H](NC(=O)CCP(=O)(O)O)c1ccccc1 (single isomer, unassigned) , what pKa is on record?
Output: 7.8
